system: PPARg:RXRa 30nM:10nM, anti-RXR (NR concentration 30 nM, RXRa partner concentration 10 nM); experiment: PBM binding z-score (relative to random genomic background probes); higher = stronger binding; sequences stand for … in GC…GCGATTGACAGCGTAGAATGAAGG
Please use yes whenever PBM binding z-score is not below 2, and no whenever it is.

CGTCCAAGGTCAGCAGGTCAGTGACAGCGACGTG	no

Task: # check: PBM binding z-score of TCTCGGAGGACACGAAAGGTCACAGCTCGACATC is greater than or equal to 2
Result: yes

Task: Please tell me: is the sequence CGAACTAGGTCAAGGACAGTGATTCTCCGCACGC at or over 2 in terms of PBM binding z-score?
Result: yes

Task: Given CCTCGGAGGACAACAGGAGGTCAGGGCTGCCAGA , state whether its PBM binding z-score is at least 2.
Result: no

Task: Check this sequence for PBM binding z-score at or above 2: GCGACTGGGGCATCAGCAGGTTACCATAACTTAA
Result: no

Task: Hi team, for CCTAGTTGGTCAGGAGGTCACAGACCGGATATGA , is the recorded PBM binding z-score at or above 2?
Result: no

* * *

test system: VDR homodimer (NR concentration 270 nM); test: PBM binding z-score (relative to random genomic background probes); higher = stronger binding; sequences stand for … in GC…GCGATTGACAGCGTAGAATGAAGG
experimental.endpoint: PBM binding z-score
Would you mind answering with just the numeric figure?

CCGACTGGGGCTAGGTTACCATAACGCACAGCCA	-0.608
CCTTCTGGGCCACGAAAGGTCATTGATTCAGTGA	2.42

The observed PBM binding z-score for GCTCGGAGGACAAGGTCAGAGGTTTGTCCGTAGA when tested with VDR homodimer (NR concentration 270 nM) stands at 1.2

* * *

system: RXRa homodimer (NR concentration 180 nM); assay: PBM binding z-score (relative to random genomic background probes); higher = stronger binding; sequences stand for … in GC…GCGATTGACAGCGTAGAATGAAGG
Ranges used to classify PBM binding z-score: bucket 1 (below 0.5), bucket 2 (0.5 to below 1), bucket 3 (1 or more)

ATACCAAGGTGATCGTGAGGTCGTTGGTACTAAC	bucket 3
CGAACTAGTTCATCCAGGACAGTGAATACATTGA	bucket 2
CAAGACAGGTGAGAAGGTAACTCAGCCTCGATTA	bucket 1
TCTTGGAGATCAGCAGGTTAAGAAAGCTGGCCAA	bucket 1
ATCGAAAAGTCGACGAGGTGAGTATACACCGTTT	bucket 2

Task: Sort into band: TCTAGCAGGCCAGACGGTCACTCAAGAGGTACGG
Result: bucket 1

Task: Place this sequence in its band: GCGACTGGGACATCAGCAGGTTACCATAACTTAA
Result: bucket 1

* * *

tested on: PPARg:RXRa IVT, anti-PPARg (NR concentration 270 nM, RXRa partner concentration 90 nM); assay: PBM binding z-score (relative to random genomic background probes); higher = stronger binding; sequences stand for … in GC…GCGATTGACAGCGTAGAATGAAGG
Measured PBM binding z-score of individual entries
Respond using a number only.

Some solved cases for reference:
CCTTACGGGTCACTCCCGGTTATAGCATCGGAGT	3.2
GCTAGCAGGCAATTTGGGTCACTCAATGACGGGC	2.92
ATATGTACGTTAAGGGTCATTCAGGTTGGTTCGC	3.15
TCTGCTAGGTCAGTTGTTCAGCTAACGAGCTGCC	2.46

PBM binding z-score recorded for this sequence, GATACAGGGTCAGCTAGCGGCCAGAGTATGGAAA , is 2.05

Short answer for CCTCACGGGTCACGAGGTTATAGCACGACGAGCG : PBM binding z-score was 3.65

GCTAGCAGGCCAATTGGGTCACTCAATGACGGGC yielded PBM binding z-score of 3.11

The reported value for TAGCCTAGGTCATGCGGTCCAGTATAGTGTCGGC in terms of PBM binding z-score is 3.01

Record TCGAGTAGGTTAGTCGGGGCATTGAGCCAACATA . Reported PBM binding z-score: 2.19

The recorded PBM binding z-score for entry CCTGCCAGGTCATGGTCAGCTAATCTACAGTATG equals 2.35

# PBM binding z-score (sequence: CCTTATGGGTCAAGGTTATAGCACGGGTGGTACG ) is 5.46

Reported PBM binding z-score for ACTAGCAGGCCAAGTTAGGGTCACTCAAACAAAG was 1.32

// recorded PBM binding z-score for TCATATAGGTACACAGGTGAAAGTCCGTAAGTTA : 2.34

Field PBM binding z-score (entry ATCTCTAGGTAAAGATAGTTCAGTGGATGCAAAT ) reads 1.54

Notebook: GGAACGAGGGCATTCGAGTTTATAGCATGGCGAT , PBM binding z-score read as 2.31

The measured PBM binding z-score associated with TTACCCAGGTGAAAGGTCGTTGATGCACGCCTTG reads 5.28

// field: PBM binding z-score; key: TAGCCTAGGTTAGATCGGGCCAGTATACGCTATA ; value = 0.069

Short answer for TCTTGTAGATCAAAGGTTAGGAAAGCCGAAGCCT : PBM binding z-score was 3.42

The measured PBM binding z-score associated with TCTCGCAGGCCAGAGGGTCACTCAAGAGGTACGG reads 0.394

Just so you know, measured PBM binding z-score for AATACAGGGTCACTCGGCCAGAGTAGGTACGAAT came out at 5.09

// PBM binding z-score value for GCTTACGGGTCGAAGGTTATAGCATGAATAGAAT : 2.66

// PBM binding z-score value for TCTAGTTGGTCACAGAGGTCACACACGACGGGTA : 4.35

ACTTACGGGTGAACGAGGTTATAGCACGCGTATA has a reported PBM binding z-score of 2.61

Measured PBM binding z-score of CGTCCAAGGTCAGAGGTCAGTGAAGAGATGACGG : 4.65

Sure, the documented PBM binding z-score for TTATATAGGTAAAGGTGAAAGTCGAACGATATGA is 6.52

Entry under test: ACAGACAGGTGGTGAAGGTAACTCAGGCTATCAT . Its PBM binding z-score was 0.0629

* * *

tested on: PPARg:RXRa DBDmut IVT, anti-RXR (DBD mutation: RXRa K156A/R161A, NR concentration 270 nM, RXRa partner concentration 90 nM); assay: PBM binding z-score (relative to random genomic background probes); higher = stronger binding; sequences stand for … in GC…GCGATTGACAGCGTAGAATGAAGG
experimental.endpoint: PBM binding z-score

The following sequences have reported results that may help.
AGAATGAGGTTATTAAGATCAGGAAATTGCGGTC	2.71
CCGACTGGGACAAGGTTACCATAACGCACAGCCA	2.14

Noted for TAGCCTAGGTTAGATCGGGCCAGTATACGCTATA : its PBM binding z-score reads -0.639

// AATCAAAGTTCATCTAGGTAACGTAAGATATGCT : PBM binding z-score value = 0.153

Measured PBM binding z-score, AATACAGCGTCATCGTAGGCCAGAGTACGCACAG : -0.562

Consider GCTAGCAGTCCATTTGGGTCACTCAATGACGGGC . Its measured PBM binding z-score is 0.379

* * *

test system: PPARg:RXRa (NR concentration 180 nM, RXRa partner concentration 90 nM); experiment: PBM binding z-score (relative to random genomic background probes); higher = stronger binding; sequences stand for … in GC…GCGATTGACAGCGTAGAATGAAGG
Classification scheme (PBM binding z-score): class A: < 0.6; class B: ≥ 0.6 and < 3; class C: ≥ 3

Example entries and their recorded answers appear below.
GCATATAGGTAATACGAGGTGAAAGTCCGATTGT	class B
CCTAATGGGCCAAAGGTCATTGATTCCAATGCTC	class C
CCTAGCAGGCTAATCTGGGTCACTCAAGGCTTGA	class B
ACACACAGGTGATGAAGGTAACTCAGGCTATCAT	class B
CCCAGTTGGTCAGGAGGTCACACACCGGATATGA	class C
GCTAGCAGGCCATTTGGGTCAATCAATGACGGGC	class B
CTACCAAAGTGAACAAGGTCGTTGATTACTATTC	class A
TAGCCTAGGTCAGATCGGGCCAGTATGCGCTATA	class A
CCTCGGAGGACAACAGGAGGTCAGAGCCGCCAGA	class A
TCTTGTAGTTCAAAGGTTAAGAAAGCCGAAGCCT	class C

Task: Category of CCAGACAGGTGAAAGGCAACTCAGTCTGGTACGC , please.
Result: class B

Task: Exam item: assign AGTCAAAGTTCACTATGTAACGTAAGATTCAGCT to the correct category.
Result: class C

Task: For the record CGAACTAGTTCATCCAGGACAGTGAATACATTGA , report the class its PBM binding z-score corresponds to.
Result: class B

Task: Place this sequence in its band: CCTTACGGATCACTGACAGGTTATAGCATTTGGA
Result: class B

Task: GET /class?item= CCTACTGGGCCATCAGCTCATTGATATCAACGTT
Result: class A

Task: # classify by PBM binding z-score band: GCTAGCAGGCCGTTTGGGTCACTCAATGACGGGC
Result: class A

Task: For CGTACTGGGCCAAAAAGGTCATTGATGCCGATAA , which PBM binding z-score bin applies?
Result: class C

Task: Bin this entry: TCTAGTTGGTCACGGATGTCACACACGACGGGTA
Result: class B

Task: Into which bin does this sequence go? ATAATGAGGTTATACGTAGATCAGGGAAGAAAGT
Result: class B

Task: Using the reported PBM binding z-score, which band applies to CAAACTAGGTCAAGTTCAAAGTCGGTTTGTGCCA ?
Result: class C

Task: State the band of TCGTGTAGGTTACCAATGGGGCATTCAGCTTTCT
Result: class A

Task: Record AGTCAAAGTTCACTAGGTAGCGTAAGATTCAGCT — which class?
Result: class C

Task: Category of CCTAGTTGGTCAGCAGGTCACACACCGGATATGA :
Result: class B

Task: Field: class (PBM binding z-score) — entry: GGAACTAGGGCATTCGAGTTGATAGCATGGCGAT
Result: class C

Task: Please indicate the class for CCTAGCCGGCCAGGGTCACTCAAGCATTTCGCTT based on its PBM binding z-score.
Result: class A

# credit: the supplement of paper PMC6555819
